# System: Liver
# testName: Drug metabolism in phenobarbital/beta-napthoflavone treated Sprague-Dawley rat liver S9 fraction assessed as prodrug activation at 50 uM preincubated for 5 mins followed by NADPH addition measured up to 60 mins by HPLC-MS/MS analysis
# Type: ADME, subcellular
# measurementParameters: s9, 1 h
quantityKind: log10(Drug metabolism) (log10 of the value in nmol/min/mg)
Hi team, quick reminder: these entries are log10 of Drug metabolism (nmol/min/mg).

Cc1cccc(COP(=O)(NCc2ccccc2)OC[C@H]2O[C@@H](n3cc(F)c(=O)[nH]c3=O)C[C@@H]2O)c1 (some centres not stated) ... 1.69
COc1ccccc1COP(=O)(NCc1ccccc1)OC[C@H]1O[C@@H](n2cc(F)c(=O)[nH]c2=O)C[C@@H]1O (some centres not stated) ... 2.38
O=c1[nH]c(=O)n([C@H]2C[C@H](O)[C@@H](COP(=O)(NCc3ccccc3)OCc3ccccc3Br)O2)cc1F (some centres not stated) ... 1.70
O=c1[nH]c(=O)n([C@H]2C[C@H](O)[C@@H](COP(=O)(NCc3ccccc3)OCc3ccc([N+](=O)[O-])cc3)O2)cc1F (some centres not stated) ... 1.60
O=c1[nH]c(=O)n([C@H]2C[C@H](O)[C@@H](COP(=O)(NCc3ccccc3)OCc3ccccc3)O2)cc1F (some centres not stated) ... 1.24

query: log10(Drug metabolism) lookup needed for O=c1[nH]c(=O)n([C@H]2C[C@H](O)[C@@H](COP(=O)(NCc3ccccc3)OCc3ccccc3F)O2)cc1F (some centres not stated) , thanks.
result: 1.54

query: log10(Drug metabolism) lookup needed for O=c1[nH]c(=O)n([C@H]2C[C@H](O)[C@@H](COP(=O)(NCc3ccccc3)OCc3ccc(Br)cc3)O2)cc1F (some centres not stated) , thanks.
result: 1.59

----------
# System: Liver
# testName: Drug metabolism in phenobarbital/beta-napthoflavone treated Sprague-Dawley rat liver S9 fraction assessed as prodrug activation at 50 uM preincubated for 5 mins followed by NADPH addition measured up to 60 mins by HPLC-MS/MS analysis
# Assay type: ADME, subcellular
# measurementParameters: s9, 1 h
quantityKind: Drug metabolism (nmol/min/mg)
Report as a plain number; the unit nmol/min/mg is understood.

Take a look at these entries with their results.
O=c1[nH]c(=O)n([C@H]2C[C@H](O)[C@@H](COP(=O)(NCc3ccccc3)OCc3cccc(F)c3)O2)cc1F (some centres undefined) ... 12.5
O=c1[nH]c(=O)n([C@H]2C[C@H](O)[C@@H](COP(=O)(NCc3ccccc3)OCc3ccc(Cl)cc3)O2)cc1F (some centres undefined) ... 25.6
O=c1[nH]c(=O)n([C@H]2C[C@H](O)[C@@H](COP(=O)(NCc3ccccc3)OCc3cccc([N+](=O)[O-])c3)O2)cc1F (some centres undefined) ... 14.9

query: What Drug metabolism appears in the records for this molecule with Liver? Cc1ccccc1COP(=O)(NCc1ccccc1)OC[C@H]1O[C@@H](n2cc(F)c(=O)[nH]c2=O)C[C@@H]1O (some centres undefined)
result: 58.4

----------
# testName: Half life in dog plasma by HPLC-MS/MS analysis
# Format: ADME, cell-free, Canis lupus familiaris
# half-life listing for each entry below

Cc1ccccc1CO[P@](=O)(N[C@@H](C)C(=O)OC(C)C)OC[C@H]1O[C@@H](n2cc(F)c(=O)[nH]c2=O)C[C@@H]1O ... > 24 h

Now look at this entry.
query: half-life lookup needed for Cc1ccccc1COP(=O)(N[C@@H](C)C(=O)OC(C)C)OC[C@H]1O[C@@H](n2cc(F)c(=O)[nH]c2=O)C[C@@H]1O (some centres not stated) , thanks.
result: > 24 h

----------
# Test system: Liver
# testName: Drug metabolism in phenobarbital/beta-napthoflavone treated Sprague-Dawley rat liver S9 fraction assessed as prodrug activation at 50 uM preincubated for 5 mins followed by NADPH addition measured up to 60 mins by HPLC-MS/MS analysis
# Type: ADME, subcellular
# measurementParameters: s9, 1 h
# Drug metabolism listing for each entry below
Report as a plain number; the unit nmol/min/mg is understood.

Cc1ccc(COP(=O)(NCc2ccccc2)OC[C@H]2O[C@@H](n3cc(F)c(=O)[nH]c3=O)C[C@@H]2O)cc1 (some centres not stated) ... 53.5
O=c1[nH]c(=O)n([C@H]2C[C@H](O)[C@@H](COP(=O)(NCc3ccccc3)OCc3ccc(F)cc3)O2)cc1F (some centres not stated) ... 26.3
COc1cccc(COP(=O)(NCc2ccccc2)OC[C@H]2O[C@@H](n3cc(F)c(=O)[nH]c3=O)C[C@@H]2O)c1 (some centres not stated) ... 118.7
O=c1[nH]c(=O)n([C@H]2C[C@H](O)[C@@H](COP(=O)(NCc3ccccc3)OCc3cccc(Cl)c3)O2)cc1F (some centres not stated) ... 22.6
O=c1[nH]c(=O)n([C@H]2C[C@H](O)[C@@H](COP(=O)(NCc3ccccc3)OCc3cccc(Br)c3)O2)cc1F (some centres not stated) ... 32.8

query: Drug metabolism lookup needed for O=c1[nH]c(=O)n([C@H]2C[C@H](O)[C@@H](COP(=O)(NCc3ccccc3)OCc3ccccc3Cl)O2)cc1F (some centres not stated) , thanks.
result: 29.2

query: Drug metabolism lookup needed for O=c1[nH]c(=O)n([C@H]2C[C@H](O)[C@@H](COP(=O)(NCc3ccccc3)OCc3ccccc3[N+](=O)[O-])O2)cc1F (some centres not stated) , thanks.
result: 44.7
